- assay system: Serotonin (5HT) reuptake (Rattus norvegicus, UniProt P31652)
- Construct: synaptosomes are freshly isolated from areas of rat brain; from tissue; host or cells: rat brain synaptosomes (P2 fraction)
- Sequence (P31652 whole entry): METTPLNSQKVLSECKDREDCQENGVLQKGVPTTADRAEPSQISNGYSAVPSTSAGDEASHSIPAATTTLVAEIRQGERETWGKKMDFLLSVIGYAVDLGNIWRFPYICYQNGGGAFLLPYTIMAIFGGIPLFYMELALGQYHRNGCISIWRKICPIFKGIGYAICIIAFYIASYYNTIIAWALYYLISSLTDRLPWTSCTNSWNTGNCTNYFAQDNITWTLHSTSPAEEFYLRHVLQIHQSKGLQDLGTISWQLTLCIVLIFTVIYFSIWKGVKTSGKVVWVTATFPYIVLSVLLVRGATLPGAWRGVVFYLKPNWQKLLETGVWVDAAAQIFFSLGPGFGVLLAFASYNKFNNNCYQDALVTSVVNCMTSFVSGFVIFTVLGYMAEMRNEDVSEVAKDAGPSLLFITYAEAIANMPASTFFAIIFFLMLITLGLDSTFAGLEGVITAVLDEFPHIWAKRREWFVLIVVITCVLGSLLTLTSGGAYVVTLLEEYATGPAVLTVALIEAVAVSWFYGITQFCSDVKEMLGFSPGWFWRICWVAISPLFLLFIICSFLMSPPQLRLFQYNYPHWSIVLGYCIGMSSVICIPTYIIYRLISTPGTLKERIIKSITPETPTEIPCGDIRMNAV
- test description: Serotonin (5HT) reuptake inhibition in rat brain synaptosomes (P2 fraction)
- Assay type: biochemical
pKi: −log10 of the molar value. Where a name gives a salt, the structure may show the parent alone.
property measured: pKi

>  <compound>
CCOC(=O)C=CC1CCC(C(c2ccccc2)N(C)C)CC1 (stereo not shown)

>  <observed measurement>
6.38

$$$$
>  <compound>
CCOC(=O)CC1CCC(C(c2ccccc2)N(C)C)CC1 (stereo not shown)

>  <observed measurement>
7.01

$$$$
>  <compound>
CC(=O)N(CCCCc1ccccc1)C1CCC(C(c2ccccc2)N(C)C)CC1 (stereo not shown) [compound 98, hydrochloride]

>  <observed measurement>
6.20

$$$$
>  <compound>
CN(C)C(c1ccccc1)C1CCC(NC(=O)Nc2cccc(C(F)(F)F)c2)CC1 (stereo not shown) [compound 75, hydrochloride]

>  <observed measurement>
7.89

$$$$

###

- assay system: human μ-opiate receptor (Homo sapiens, UniProt P35372)
- Sequence (P35372 whole entry): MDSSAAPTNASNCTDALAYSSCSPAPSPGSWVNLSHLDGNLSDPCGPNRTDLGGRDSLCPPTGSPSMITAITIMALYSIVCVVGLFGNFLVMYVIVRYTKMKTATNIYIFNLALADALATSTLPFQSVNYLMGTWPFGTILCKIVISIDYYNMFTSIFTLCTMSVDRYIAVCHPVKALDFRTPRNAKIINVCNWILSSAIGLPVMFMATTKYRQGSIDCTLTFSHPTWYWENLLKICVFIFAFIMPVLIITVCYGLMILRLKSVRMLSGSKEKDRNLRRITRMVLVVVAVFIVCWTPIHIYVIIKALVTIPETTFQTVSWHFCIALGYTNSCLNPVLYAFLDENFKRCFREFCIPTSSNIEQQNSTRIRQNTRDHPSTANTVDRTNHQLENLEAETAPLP
- test description: Affinity for the human μ-opiate receptor ([3H]-naloxone displacement, SPA, CHO-K1 membrane preparation)
- Assay type: binding
- conditions used: read-out: μ-Opioid receptor, % inhibition [1 μM]
Assign T whenever inhibition at 1 µM does not fall below 90%; assign F whenever it does.

>  <molecule>
CCCc1ccc(C(=O)NC2CCC(C(c3cccs3)N(C)C)CC2)cc1 (centres unmarked)

>  <label>
T

$$$$
>  <molecule>
CN(C)C(c1ccc(Cl)cc1)C1CCC(CCNC(=O)c2ccc(F)c(F)c2)CC1 (centres unmarked)

>  <label>
F

$$$$
>  <molecule>
CC(Oc1ccccc1)C(=O)NCC1CCC(C(c2ccc(Cl)cc2)N(C)C)CC1 (centres unmarked)

>  <label>
F

$$$$
>  <molecule>
CN(C)C(c1cccc(F)c1)C1CCC(CNC(=O)CC(C)(C)C)CC1 (centres unmarked)

>  <label>
T

$$$$
>  <molecule>
Cc1cc(C(=O)NCC2CCC(C(c3cccs3)N(C)C)CC2)n(C(C)(C)C)n1 (centres unmarked)

>  <label>
F

$$$$
>  <molecule>
Cc1oc(-c2ccccc2)cc1C(=O)NCC1CCC(C(c2ccc(Cl)cc2)N(C)C)CC1 (centres unmarked)

>  <label>
T

$$$$

###

Quick list: % maximum possible antinociceptive effect at 10 mg/kg per entry.
- Tested on: mouse
- test description: In vivo studies of analgesia: tail-flick test in the mouse
- conditions used: iv, dose 10 mg/kg (i.v.), read-out: Activity % MPE
Structures can show the parent of a compound that is named as a salt.
property measured: % maximum possible antinociceptive effect at 10 mg/kg (%)

>  <compound>
CN(C)C(c1ccccc1)C1CCC(O)(Cc2ccc(F)cc2)CC1 (stereo not drawn) [compound 148, hydrochloride]

>  <scale unit>
%

>  <observed measurement>
40

$$$$
>  <compound>
CN(C)C(c1ccccc1)C1CCC(NCCCCc2ccccc2)CC1 (stereo not drawn) [compound 87, hydrochloride]

>  <scale unit>
%

>  <observed measurement>
39

$$$$
>  <compound>
CCCC(=O)N(Cc1ccccc1)C1CCC(C(c2ccccc2)N(C)C)CC1 (stereo not drawn) [compound 102, hydrochloride]

>  <scale unit>
%

>  <observed measurement>
82

$$$$

###

- assay system: human μ-opiate receptor (Homo sapiens)
- test description: Affinity for the human μ-opiate receptor ([3H]-naloxone displacement, SPA, CHO-K1 membrane preparation)
- Assay type: binding
- conditions used: sulfonamides (Table 17); read-out: μ-Opioid receptor, Ki
Where a name gives a salt, the structure may show the parent alone.
property measured: Ki (nM)

>  <compound>
CN(C)C(c1ccccc1)C1CCC(NS(=O)(=O)c2ccc(Cl)cc2)CC1 (centres unmarked) [compound 106, hydrochloride]

>  <property measured>
Ki

>  <observed measurement>
3.7

$$$$
>  <compound>
CN(C)C(c1ccccc1)C1CCC(NS(=O)(=O)c2ccccc2)CC1 (centres unmarked) [compound 110, hydrochloride]

>  <property measured>
Ki

>  <observed measurement>
25

$$$$
>  <compound>
CN(C)C(c1ccccc1)C1CCC(NS(=O)(=O)c2ccc(C(C)(C)C)cc2)CC1 (centres unmarked) [compound 108, hydrochloride]

>  <property measured>
Ki

>  <observed measurement>
22

$$$$
>  <compound>
COc1ccc(S(=O)(=O)NC2CCC(C(c3ccccc3)N(C)C)CC2)cc1 (centres unmarked) [compound 107, hydrochloride]

>  <property measured>
Ki

>  <observed measurement>
15

$$$$
>  <compound>
CN(C)C(c1ccccc1)C1CCC(NS(=O)(=O)c2ccccc2[N+](=O)[O-])CC1 (centres unmarked) [compound 109, hydrochloride]

>  <property measured>
Ki

>  <observed measurement>
77

$$$$

###

- assay system: human μ-opiate receptor (Homo sapiens)
- test description: Affinity for the human μ-opiate receptor ([3H]-naloxone displacement, SPA, CHO-K1 membrane preparation)
- Type: binding
- conditions used: read-out: μ-Opioid receptor, Ki
Where a name gives a salt, the structure may show the parent alone.

>  <compound>
CN(C)C(c1ccc(F)cc1)C1CCC(CCNC(=O)c2cccc(Br)c2)CC1 (centres unmarked)

>  <Ki / nM>
31

$$$$
>  <compound>
CN(C)C(c1cccc(F)c1)C1CCC(CNC(=O)c2ccccc2Br)CC1 (centres unmarked)

>  <Ki / nM>
38

$$$$
>  <compound>
CN(C)C(c1cccc(F)c1)C1CCC(CCNC(=O)c2ccccc2F)CC1 (centres unmarked)

>  <Ki / nM>
11

$$$$
>  <compound>
CN(C)C(c1ccc(Cl)cc1)C1CCC(CCNC(=O)c2ccc(F)cc2)CC1 (centres unmarked)

>  <Ki / nM>
12

$$$$
>  <compound>
CC(=O)N(Cc1ccc(F)cc1)C1CCC(C(c2ccccc2)N(C)C)CC1 (centres unmarked)

>  <Ki / nM>
3

$$$$
>  <compound>
CN(C)C(c1cccc(F)c1)C1CCC(CCNC(=O)c2ccc(F)cc2)CC1 (centres unmarked)

>  <Ki / nM>
28

$$$$
>  <compound>
CN(C)C(c1ccccc1)C1CCC(NC(=O)Nc2ccccc2)CC1.Cl (centres unmarked) [compound 78, hydrochloride]

>  <Ki / nM>
54

$$$$
>  <compound>
CCC(=O)N(CCCCc1ccccc1)C1CCC(C(c2ccccc2)N(C)C)CC1 (centres unmarked) [compound 97, hydrochloride]

>  <Ki / nM>
3.7

$$$$

###

// values below are reported inhibition at 1 µM
- assay system: UniProt:P35372
- test description: Affinity for the human μ-opiate receptor ([3H]-naloxone displacement, SPA, CHO-K1 membrane preparation)
- Assay type: binding
- conditions used: read-out: μ-Opioid receptor, % inhibition [1 μM]
property measured: inhibition at 1 µM

>  <compound>
CC(=O)N(Cc1ccc(F)cc1)C1CCC(C(c2ccccc2)N(C)C)CC1 (stereo not drawn)

>  <assay system>
UniProt:P35372

>  <observed measurement>
99%

$$$$
>  <compound>
CN(C)C(c1cccs1)C1CCC(CNC(=O)c2cccc(C#N)c2)CC1 (stereo not drawn)

>  <assay system>
UniProt:P35372

>  <observed measurement>
90%

$$$$
>  <compound>
CN(C)C(c1ccccc1)C1CCC(CCNC(=O)Cc2ccccc2)CC1 (stereo not drawn)

>  <assay system>
UniProt:P35372

>  <observed measurement>
92%

$$$$
>  <compound>
CN(C)C(c1cccs1)C1CCC(CNC(=O)CC(C)(C)C)CC1 (stereo not drawn)

>  <assay system>
UniProt:P35372

>  <observed measurement>
99%

$$$$
>  <compound>
Cc1cc(C(=O)NC2CCC(C(c3cccc(F)c3)N(C)C)CC2)c(C)o1 (stereo not drawn)

>  <assay system>
UniProt:P35372

>  <observed measurement>
78%

$$$$
>  <compound>
CN(C)C(c1cccs1)C1CCC(NC(=O)c2cc(Cl)cc(Cl)c2)CC1 (stereo not drawn)

>  <assay system>
UniProt:P35372

>  <observed measurement>
96%

$$$$
>  <compound>
CN(C)C(c1ccccc1)C1CCC(CCNC(=O)c2c(F)cccc2F)CC1 (stereo not drawn)

>  <assay system>
UniProt:P35372

>  <observed measurement>
100%

$$$$
>  <compound>
CN(C)C(c1ccccc1)C1CCC(CCNC(=O)COCc2ccccc2)CC1 (stereo not drawn)

>  <assay system>
UniProt:P35372

>  <observed measurement>
89%

$$$$
>  <compound>
CN(C)C(c1ccccc1)C1CCC(NC(=O)c2ccccc2Br)CC1 (stereo not drawn)

>  <assay system>
UniProt:P35372

>  <observed measurement>
71%

$$$$

###

- assay system: human μ-opiate receptor (Homo sapiens, UniProt P35372)
- test description: Affinity for the human μ-opiate receptor ([3H]-naloxone displacement, SPA, CHO-K1 membrane preparation)
- Format: binding
- conditions used: 1 µM
property measured: μ-Opioid receptor, % inhibition [1 μM] (%)

>  <compound>
CN(C)C(c1cccc(F)c1)C1CCC(CNC(=O)c2cccs2)CC1 (single isomer, unassigned)

>  <observed measurement>
91

$$$$
>  <compound>
CN(C)C(c1cccc(F)c1)C1CCC(CCNC(=O)c2cc(F)c(Cl)cc2Cl)CC1 (single isomer, unassigned)

>  <observed measurement>
85

$$$$
>  <compound>
CN(C)C(c1ccccc1)C1CCC(CNC(=O)C2(c3ccc(Cl)cc3)CCCC2)CC1 (stereo not shown)

>  <observed measurement>
91

$$$$
>  <compound>
Cc1oc(-c2ccccc2)cc1C(=O)NCC1CCC(C(c2cccc(F)c2)N(C)C)CC1 (stereo not shown)

>  <observed measurement>
84

$$$$
>  <compound>
CN(C)C(c1ccccc1)C1CCC(CNC(=O)c2ccc(F)c(F)c2)CC1 (single isomer, unassigned)

>  <observed measurement>
86

$$$$
>  <compound>
CC(Oc1ccccc1)C(=O)NC1CCC(C(c2cccc(F)c2)N(C)C)CC1 (single isomer, unassigned)

>  <observed measurement>
88

$$$$
>  <compound>
CN(C)C(c1ccccc1)C1CCC(CNC(=O)c2cccc(C(F)(F)F)c2)CC1 (single isomer, unassigned)

>  <observed measurement>
92

$$$$
